- System: Clostridium difficile
- MEASUREMENT_PROTOCOL: growth AUC relative to DMSO control (median of replicates) (fraction); higher = more growth (less inhibition), active = hit call of the paper
- MEASUREMENT_PARAMETERS: 20 µM; 24 h
PARAMETER_MEASURED: growth AUC
Answers are plain numbers.

CNC(=O)/C(=N/OC)c1ccccc1COc1cc(C)ccc1C: 0.987
O=C1NCCN1: 0.993
COC1CCC2(CC1)NC(=O)C(c1cc(C)ccc1C)C2O (configuration not stated): 1.01
CCNc1nc(NC(C)(C)C)nc(OC)n1: 0.998
CON(C(=O)c1cc(C)oc1C)C1CCCCC1: 0.972
CCCCCCC(C)OC(=O)C(C)Oc1ccc(Cl)cc1C (configuration not stated): 1.01

Enquiry: Identify the reported growth AUC for the following entry. NC(Cn1cncn1)C(=O)O (configuration not stated)
Return: 0.981

---

- Test system: Eubacterium rectale
- MEASUREMENT_PROTOCOL: growth AUC relative to DMSO control (median of replicates) (fraction); higher = more growth (less inhibition), active = hit call of the paper
- MEASUREMENT_PARAMETERS: 20 µM; 24 h
PARAMETER_MEASURED: growth AUC
One number for each entry.

Study these solved cases before continuing.
CSC(=O)c1cccc2nnsc12: 1.03
CCCCCC(C)OC(=O)COc1ccc(Cl)c2cccnc12 (centres undefined): 0.177
COC(=O)Cc1cccc2ccccc12: 1.07
CC1(C)C(C(=O)OC(C#N)c2cccc(Oc3ccccc3)c2)C1C(Br)C(Br)(Br)Br (centres undefined): 0.996
CCSC(=O)COc1ccc(Cl)cc1C: 1.03
O=S(=O)(Oc1ccc(Cl)cc1)c1ccccc1: 0.874
CCOC(=O)C1CC(=O)C(=C(O)C2CC2)C(=O)C1 (centres undefined): 0.961
Br[C@@H]1CC[C@@H](Br)[C@@H](Br)CC[C@H](Br)[C@H](Br)CC[C@H]1Br: 1.08
CCc1cccc(CC)c1N(COC)C(=O)C(=O)O: 0.948
CCCCOCCOC(=O)COc1ccc(Cl)cc1Cl: 1.1

Give one value of growth AUC per listed molecule.
1. C[C@@]1(c2ccccc2)NC(=O)N(Nc2ccccc2)C1=O
2. CCc1ccc(C(c2ccc(CC)cc2)C(Cl)Cl)cc1
3. CCOCOc1ccc(C(=O)Nc2cccc(Cl)c2Cl)cc1
4. CCNc1nc(NCC)nc(OC)n1

Return:
0.948
0.935
0.961
1

---

- System: Streptococcus salivarius
- MEASUREMENT_PROTOCOL: growth AUC relative to DMSO control (median of replicates) (fraction); higher = more growth (less inhibition), active = hit call of the paper
- MEASUREMENT_PARAMETERS: 20 µM; 24 h
Exercise: for every item that follows, state its recorded growth AUC.
Give bare numbers.

N#Cc1ccc(CC(=NNC(=O)Nc2ccc(OC(F)(F)F)cc2)c2cccc(C(F)(F)F)c2)cc1 (mixture of isomers): 1.02
COc1cc(OC)nc(NC(=O)NS(=O)(=O)Nc2ccccc2C(=O)N(C)C)n1: 0.99

Continue with the next molecule.
Enquiry: Identify the reported growth AUC for the following entry. COC(=O)C(C)Oc1ccc(Cl)cc1Cl (stereo not drawn)
Return: 0.991

---

- Tested on: Odoribacter splanchnicus
- MEASUREMENT_PROTOCOL: growth AUC relative to DMSO control (median of replicates) (fraction); higher = more growth (less inhibition), active = hit call of the paper
- MEASUREMENT_PARAMETERS: 20 µM; 24 h
PARAMETER_MEASURED: growth AUC
Numbers only.

Give one value of growth AUC per listed compound.
1. CCc1ccc(C(c2ccc(CC)cc2)C(Cl)Cl)cc1
2. CC(C)(NC(=O)C(Br)C(C)(C)C)c1ccccc1 (stereo not given)
3. Cc1cccc(C)c1N(CC(=O)O)C(=O)CS(=O)(=O)[O-].[Na+]
4. S=C([S-])NCCNC(=S)[S-].[Zn+2]

Return:
1: 1; 2: 0.983; 3: 1.01; 4: 0.999

Enquiry: Using Odoribacter splanchnicus as the test system, report measured growth AUC of O=S(=O)(Cc1ccc(Cl)cc1)c1ccc(Cl)cc1 .
Return: 0.995

---

Exercise: for every item that follows, state its recorded growth AUC.
- Tested on: Collinsella aerofaciens
- MEASUREMENT_PROTOCOL: growth AUC relative to DMSO control (median of replicates) (fraction); higher = more growth (less inhibition), active = hit call of the paper
- MEASUREMENT_PARAMETERS: 20 µM; 24 h
Give bare numbers.

Study these solved cases before continuing.
COC(=O)CSc1cc(N=c2sc(=O)n3n2CCCC3)c(F)cc1Cl: 1.01
Oc1ccccc1O: 1.01
Cn1cc(C(=O)Nc2ccc(F)cc2-c2ccc(Cl)c(Cl)c2)c(C(F)F)n1: 0.991
CS(=O)(=O)c1ccc(C(=O)C2C(=O)C(O)CC(O)C2=O)c(Cl)c1COCC(F)(F)F (stereo not given): 1

Continue with the next compound.
Enquiry: Identify the reported growth AUC for the following entry. CC1=C(c2ccccc2)C(=O)N(C(C)(C)c2cc(Cl)cc(Cl)c2)CO1
Return: 0.965

---

- Test system: Fusobacterium nucleatum subsp. animalis
- MEASUREMENT_PROTOCOL: growth AUC relative to DMSO control (median of replicates) (fraction); higher = more growth (less inhibition), active = hit call of the paper
- MEASUREMENT_PARAMETERS: 20 µM; 24 h
PARAMETER_MEASURED: growth AUC
Numbers only.

COC(=O)c1ccc(I)cc1S(=O)(=O)[N-]C(=O)Nc1nc(C)nc(OC)n1.[Na+]: 1.14
COC(=O)C(C)Oc1ccc(Oc2ccc(C(F)(F)F)cn2)cc1 (stereo not drawn): 1.12
O=C(O)[C@@H](S)[C@@H](S)C(=O)O: 1.05

Give one value of growth AUC per listed molecule.
1. CCCN(CCOc1c(Cl)cc(Cl)cc1Cl)C(=O)NC=O
2. CON(C(=O)c1cc(C)oc1C)C1CCCCC1
3. COC1CCC2(CC1)NC(=O)C(O)(c1cc(C)ccc1C)C2=O (stereo not drawn)

Return:
1.01
1.03
1.16

Give one value of growth AUC per listed molecule.
1. CNC(=O)/C(=N/OC)c1ccccc1CO/N=C(C)/C(=N/OC)C(/C)=N/OC
2. COc1ccc(Cl)c(Cl)c1Cl

Return:
1: 0.91; 2: 0.982

Give one value of growth AUC per listed molecule.
1. CC(CNC(=S)[S-])NC(=S)[S-].[Zn+2] (mixture of isomers)
2. CCc1nc2ncnn2c(N)c1CCCC(=O)O.Cl
3. CC1(C)C(C(=O)OC(C#N)c2cccc(Oc3ccccc3)c2)C1C(Br)C(Br)(Br)Br (stereo not drawn)
4. C=CCc1ccc(OC)c(OC)c1
5. CCOC(=O)c1cnn(C)c1S(=O)(=O)NC(=O)Nc1nc(OC)cc(OC)n1

Return:
[1.08, 1.13, 1.05, 1.06, 1.09]

---

- Test system: Bifidobacterium longum subsp. longum
- MEASUREMENT_PROTOCOL: growth AUC relative to DMSO control (median of replicates) (fraction); higher = more growth (less inhibition), active = hit call of the paper
- MEASUREMENT_PARAMETERS: 20 µM; 24 h
Exercise: for every item that follows, state its recorded growth AUC.
One number for each entry.

Study these solved cases before continuing.
CC(Oc1ccc(Cl)cc1Cl)C(=O)NC(C)(C#N)C(C)C (stereo not given): 1.02
CCOc1nc(F)cc2nc(S(=O)(=O)Nc3c(Cl)cccc3C(=O)OC)nn12: 0.982

Give one value of growth AUC per listed molecule.
1. Oc1ccccc1
2. CCCCC(CC)COC(=O)COc1ccc(Cl)cc1C (stereo not given)
3. CC(C)([CH2][Sn]([CH2]C(C)(C)c1ccccc1)([CH2]C(C)(C)c1ccccc1)[O][Sn]([CH2]C(C)(C)c1ccccc1)([CH2]C(C)(C)c1ccccc1)[CH2]C(C)(C)c1ccccc1)c1ccccc1
4. CCNc1nc(NC(C)CC)nc(OC)n1 (stereo not given)
5. Cc1cc(CC(C)CC(C)(C)C)n(O)c(=O)c1.NCCO (stereo not given)

Return:
1: 0.998; 2: 0.986; 3: 1.02; 4: 0.986; 5: 0.991

Give one value of growth AUC per listed molecule.
1. CCOC(=O)Cc1[nH]nc2ccc(Cl)cc12
2. C#CCN(C)c1c(C#N)cnn1-c1nn2c(c1Cl)CCCC2
3. c1ccc2[nH]c(-c3cscn3)nc2c1
4. COc1nc(N)nc(NC(C)(C)C)n1
5. COC(=O)[C@@H](C)Oc1ccc(Oc2ncc(C(F)(F)F)cc2Cl)cc1
6. CCc1ccc(C(c2ccc(CC)cc2)C(Cl)Cl)cc1
7. CCc1ccc(O)cc1
8. Cc1ccc(Cl)cc1

Return:
1. 0.989
2. 0.995
3. 0.976
4. 1.01
5. 0.976
6. 0.972
7. 1.01
8. 0.993
